Numbers sourced from paper PMC6481345.

Test system: YUSIK melanoma cells
MEASUREMENT NOTES: CellTiter-Glo Luminescent Cell Viability Assay
Format: cell-based, human
PROTOCOL CONDITIONS: YUSIK, BRAF V600E; cell viability, 72 hrs; read-out: IC50
ATTRIBUTE MEASURED: IC50 (nM)
# output: bare number, implied unit nM

*Q* Please report IC50 for the following compound: Nc1ncnc2c1c(-c1ccc(Oc3ccccc3)cc1)nn2C[C@@H]1SSC[C@@H]1O
*A* 141

###

TARGET SYSTEM: IGF1R (Homo sapiens)
Sequence (P08069 31-1367): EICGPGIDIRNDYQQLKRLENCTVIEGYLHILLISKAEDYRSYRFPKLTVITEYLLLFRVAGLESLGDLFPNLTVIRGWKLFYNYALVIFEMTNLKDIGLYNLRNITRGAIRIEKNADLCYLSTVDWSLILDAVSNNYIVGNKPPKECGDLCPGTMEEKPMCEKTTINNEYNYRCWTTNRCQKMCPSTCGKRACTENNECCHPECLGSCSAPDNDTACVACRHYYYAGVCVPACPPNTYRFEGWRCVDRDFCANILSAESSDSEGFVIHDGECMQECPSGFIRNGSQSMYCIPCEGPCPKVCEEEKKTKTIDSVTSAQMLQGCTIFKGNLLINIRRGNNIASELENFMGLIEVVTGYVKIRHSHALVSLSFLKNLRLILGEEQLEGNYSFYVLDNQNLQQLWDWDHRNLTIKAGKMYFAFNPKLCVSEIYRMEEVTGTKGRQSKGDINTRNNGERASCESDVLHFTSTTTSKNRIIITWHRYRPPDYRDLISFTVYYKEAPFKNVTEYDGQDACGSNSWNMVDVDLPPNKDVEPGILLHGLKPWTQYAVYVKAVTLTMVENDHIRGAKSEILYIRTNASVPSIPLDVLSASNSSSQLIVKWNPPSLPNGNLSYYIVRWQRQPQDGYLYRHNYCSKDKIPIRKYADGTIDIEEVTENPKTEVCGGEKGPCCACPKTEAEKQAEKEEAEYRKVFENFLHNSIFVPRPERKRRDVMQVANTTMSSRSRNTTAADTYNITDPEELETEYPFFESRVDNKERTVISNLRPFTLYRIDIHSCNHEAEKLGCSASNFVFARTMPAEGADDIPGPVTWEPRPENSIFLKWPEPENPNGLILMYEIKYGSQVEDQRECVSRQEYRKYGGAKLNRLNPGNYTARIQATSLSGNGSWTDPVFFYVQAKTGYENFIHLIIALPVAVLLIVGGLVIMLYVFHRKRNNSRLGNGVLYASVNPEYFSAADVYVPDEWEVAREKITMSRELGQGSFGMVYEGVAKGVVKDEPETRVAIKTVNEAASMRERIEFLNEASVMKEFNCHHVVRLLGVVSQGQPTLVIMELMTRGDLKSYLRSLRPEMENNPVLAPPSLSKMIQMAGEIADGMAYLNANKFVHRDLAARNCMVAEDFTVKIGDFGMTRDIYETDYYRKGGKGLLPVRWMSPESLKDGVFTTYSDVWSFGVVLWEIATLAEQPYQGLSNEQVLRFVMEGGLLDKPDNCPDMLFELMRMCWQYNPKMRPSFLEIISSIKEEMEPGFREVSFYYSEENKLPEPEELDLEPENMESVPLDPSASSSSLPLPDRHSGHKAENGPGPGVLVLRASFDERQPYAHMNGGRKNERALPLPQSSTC
MEASUREMENT NOTES: Radioisotope filter activity assay, recombinant kinase
PROTOCOL CONDITIONS: 10 point dose response, 10 µM ATP
ATTRIBUTE MEASURED: IC50

*Q* Using known records, supply IC50 for Nc1ncnc2c1c(-c1ccc(Oc3ccccc3)cc1)nn2C[C@@H]1SSC[C@@H]1O [SAB298]
*A* > 10 µM
